Tested on: rodent lifetime carcinogenesis bioassay, tumor incidence TD50
Assay: carcinogenic potency in animals, long-term in vivo studies, CPDB compilation (AID 1745844)
Conditions: mouse; strain B6C3F1; males; in feed; site: liver; lesion: hepatocellular adenoma + hepatocellular carcinoma + neoplastic nodule; dosed 78 weeks; study length 98 weeks
measure_name: TD50
Just the number plus its unit, please.

Qu. Quick check: TD50 of CCOc1ccc(NC(C)=O)cc1[N+](=O)[O-] ?
Ans. 2270 mg/kg/day

----------
System: rodent lifetime carcinogenesis bioassay, tumor incidence TD50
Test: carcinogenic potency in animals, long-term in vivo studies, CPDB compilation (AID 1745844)
Settings: mouse; strain B6C3F1; females; inhaled; site: lung; lesion: alveolar/bronchiolar adenoma + alveolar/bronchiolar carcinoma; dosed 83 weeks; study length 104 weeks
measure_name: TD50 (mg/kg/day)
Numbers only, in mg/kg/day.

Qu. Form field: TD50 recorded for C=CC=C with rodent lifetime carcinogenesis bioassay, tumor incidence TD50 (enter value)
Ans. 13.8

----------
Tested on: rodent lifetime carcinogenesis bioassay, tumor incidence TD50
Assay: carcinogenic potency in animals, long-term in vivo studies, CPDB compilation (AID 1745844)
Settings: rat; strain Fischer 344; females; by gavage; site: liver; lesion: cholangiocarcinoma; dosed 25 weeks; study length 124 weeks
measure_name: TD50

Qu. Quick check: TD50 of Brc1cc(Br)c(-c2cc(Br)c(Br)cc2Br)cc1Br ?
Ans. 2.1 mg/kg/day

----------
Tested on: rodent lifetime carcinogenesis bioassay, tumor incidence TD50
Assay: carcinogenic potency in animals, long-term in vivo studies, CPDB compilation (AID 1745844)
Settings: mouse; strain B6C3F1; males; in feed; site: Harderian gland; lesion: adenoma, NOS; dosed 78 weeks; study length 95 weeks
measure_name: TD50 (mg/kg/day)
Give bare numbers, in mg/kg/day.

Qu. Quick check: TD50 of [O-]/[N+](=N\O)c1ccccc1 ?
Ans. 1040

----------
Tested on: rodent lifetime carcinogenesis bioassay, tumor incidence TD50
Experiment: carcinogenic potency in animals, long-term in vivo studies, CPDB compilation (AID 1745844)
Settings: rat; strain Fischer 344; females; in feed; site: clitoral gland; lesion: carcinoma + carcinoma, bilateral; dosed 103 weeks; study length 104 weeks
measure_name: TD50

Qu. Quick check: TD50 of O=C(O)c1ccc([N+](=O)[O-])cc1 ?
Ans. 1080 mg/kg/day

----------
Test system: rodent lifetime carcinogenesis bioassay, tumor incidence TD50
Test: carcinogenic potency in animals, long-term in vivo studies, CPDB compilation (AID 1745844)
Conditions: mouse; strain B6C3F1; males; inhaled; site: all sites; lesion: hemangioma; dosed 40 weeks; study length 104 weeks
measure_name: TD50
Just the number plus its unit, please.

Qu. Quick check: TD50 of C=CC=C ?
Ans. 95.2 mg/kg/day

----------
Tested on: rodent lifetime carcinogenesis bioassay, tumor incidence TD50
Assay: carcinogenic potency in animals, long-term in vivo studies, CPDB compilation (AID 1745844)
Conditions: rat; strain Fischer 344; males; in drinking water; site: multiple organs; lesion: mononuclear-cell leukemia; dosed 104 weeks; study length 104 weeks
measure_name: TD50
Just the number plus its unit, please.

Qu. Form field: TD50 recorded for Cc1ccc(S(=O)(=O)Oc2ccc(N=Nc3ccc(-c4ccc(N=Nc5c(O)ccc6cc(S(=O)(=O)O)cc(S(=O)(=O)O)c56)c(C)c4)cc3C)cc2)cc1 with rodent lifetime carcinogenesis bioassay, tumor incidence TD50 (enter value)
Ans. 12.3 mg/kg/day

----------
System: rodent lifetime carcinogenesis bioassay, tumor incidence TD50
Assay: carcinogenic potency in animals, long-term in vivo studies, CPDB compilation (AID 1745844)
Conditions: rat; strain Fischer 344; females; in feed; site: liver; lesion: hepatocellular adenoma + hepatocellular carcinoma; dosed 66 weeks; study length 66 weeks
measure_name: TD50 (mg/kg/day)
Answers are plain numbers, in mg/kg/day.

Qu. Quick check: TD50 of Nc1c(Br)cc(Br)c2c1C(=O)c1ccccc1C2=O ?
Ans. 121

----------
Tested on: rodent lifetime carcinogenesis bioassay, tumor incidence TD50
Assay: carcinogenic potency in animals, long-term in vivo studies, CPDB compilation (AID 1745844)
Settings: rat; strain Sprague-Dawley; females; inhaled; site: Zymbal's gland; lesion: carcinoma; dosed 71 weeks; study length 71 weeks
measure_name: TD50

Qu. Quick check: TD50 of C=CCl ?
Ans. 1190 mg/kg/day

----------
Test system: rodent lifetime carcinogenesis bioassay, tumor incidence TD50
Assay: carcinogenic potency in animals, long-term in vivo studies, CPDB compilation (AID 1745844)
Conditions: rat; strain Sprague-Dawley; females; inhaled; site: liver; lesion: angiosarcoma; dosed 104 weeks; study length 159 weeks
measure_name: TD50

Qu. Form field: TD50 recorded for ClC=C(Cl)Cl with rodent lifetime carcinogenesis bioassay, tumor incidence TD50 (enter value)
Ans. 8010 mg/kg/day

----------
Test system: rodent lifetime carcinogenesis bioassay, tumor incidence TD50
Assay: carcinogenic potency in animals, long-term in vivo studies, CPDB compilation (AID 1745844)
Conditions: mouse; strain CDF1; females; in feed; site: liver; lesion: hepatocellular adenoma; dosed 82 weeks; study length 82 weeks
measure_name: TD50 (mg/kg/day)
Give bare numbers, in mg/kg/day.

Qu. Quick check: TD50 of Nc1ccc2nc3ccccn3c2n1 ?
Ans. 170

----------
Test system: rodent lifetime carcinogenesis bioassay, tumor incidence TD50
Assay: carcinogenic potency in animals, long-term in vivo studies, CPDB compilation (AID 1745844)
Conditions: mouse; strain B6C3F1; females; in feed; site: lung; lesion: alveolar/bronchiolar adenoma + alveolar/bronchiolar carcinoma; dosed 80 weeks; study length 91 weeks
measure_name: TD50
Just the number plus its unit, please.

Qu. Quick check: TD50 of ClC1=C(Cl)[C@]2(Cl)[C@@H]3[C@@H]4C[C@@H]([C@H]5O[C@@H]45)[C@@H]3[C@@]1(Cl)C2(Cl)Cl ?
Ans. 5.05 mg/kg/day

----------
Test system: rodent lifetime carcinogenesis bioassay, tumor incidence TD50
Test: carcinogenic potency in animals, long-term in vivo studies, CPDB compilation (AID 1745844)
Settings: mouse; strain C3H/FIB; both sexes; in feed; site: liver; lesion: hepatoma; dosed 51 weeks; study length 78 weeks
measure_name: TD50 (mg/kg/day)
Numbers only, in mg/kg/day.

Qu. Quick check: TD50 of Cc1cc(=O)[nH]c(=S)[nH]1 ?
Ans. 1370

----------
System: rodent lifetime carcinogenesis bioassay, tumor incidence TD50
Assay: carcinogenic potency in animals, long-term in vivo studies, CPDB compilation (AID 1745844)
Settings: mouse; strain CDF1; females; in feed; site: blood vessels; lesion: hemangioendothelial sarcoma; dosed 67 weeks; study length 67 weeks
measure_name: TD50 (mg/kg/day)
Answers are plain numbers, in mg/kg/day.

Qu. Quick check: TD50 of Cc1cccn2c1nc1ccc(N)nc12 ?
Ans. 13.8

----------
Tested on: rodent lifetime carcinogenesis bioassay, tumor incidence TD50
Assay: carcinogenic potency in animals, long-term in vivo studies, CPDB compilation (AID 1745844)
Settings: mouse; strain Monohybrid cross offspring of B6CF1 (C57BL/6 x BALB/c); females; in feed; site: uterus; lesion: mesothelioma; dosed 144 weeks; study length 153 weeks
measure_name: TD50

Qu. Quick check: TD50 of CC/C(=C(/CC)c1ccc(O)cc1)c1ccc(O)cc1 ?
Ans. 1.72 mg/kg/day

----------
Tested on: rodent lifetime carcinogenesis bioassay, tumor incidence TD50
Assay: carcinogenic potency in animals, long-term in vivo studies, CPDB compilation (AID 1745844)
Conditions: mouse; strain C57BL; males; by gavage; site: liver; lesion: malignant tumor; dosed 50 weeks; study length 72 weeks
measure_name: TD50

Qu. Quick check: TD50 of CN(C)N=O ?
Ans. 0.179 mg/kg/day

----------
Tested on: rodent lifetime carcinogenesis bioassay, tumor incidence TD50
Assay: carcinogenic potency in animals, long-term in vivo studies, CPDB compilation (AID 1745844)
Conditions: rat; strain Fischer 344; males; in feed; site: tunica vaginalis; lesion: mesothelioma, NOS; dosed 106 weeks; study length 106 weeks
measure_name: TD50
Just the number plus its unit, please.

Qu. Quick check: TD50 of Oc1c(Cl)cc(Cl)c(Cl)c1Cc1c(O)c(Cl)cc(Cl)c1Cl ?
Ans. 57.5 mg/kg/day

----------
System: rodent lifetime carcinogenesis bioassay, tumor incidence TD50
Test: carcinogenic potency in animals, long-term in vivo studies, CPDB compilation (AID 1745844)
Settings: rat; strain Fischer 344; males; in feed; site: all sites; lesion: leukemia; dosed 104 weeks; study length 104 weeks
measure_name: TD50 (mg/kg/day)
Answers are plain numbers, in mg/kg/day.

Qu. Quick check: TD50 of O=C(O)c1cc(=O)[nH]c(=O)[nH]1 ?
Ans. 1690

----------
Test system: rodent lifetime carcinogenesis bioassay, tumor incidence TD50
Assay: carcinogenic potency in animals, long-term in vivo studies, CPDB compilation (AID 1745844)
Conditions: mouse; strain B6C3F1; males; in feed; site: duodenum; lesion: adenomatous polyp, NOS or adenocarcinoma in adenomatous polyp; dosed 80 weeks; study length 90 weeks
measure_name: TD50

Qu. Quick check: TD50 of O=C1C2CC=CCC2C(=O)N1SC(Cl)(Cl)Cl (stereo unspecified) ?
Ans. 7390 mg/kg/day
